# Target under test: EphrinB2-EphB1 (Homo sapiens)
# Construct: soluble human EphB1-His, EphB2-His, and EphB4-His ectodomains; commercially available human EphrinB1-Fc (EB1), EphrinB2-Fc (EB2), and EphrinB3-Fc (EB3) ectodomain proteins; purchased
# Sequence (P54762 18-540 limits assumed): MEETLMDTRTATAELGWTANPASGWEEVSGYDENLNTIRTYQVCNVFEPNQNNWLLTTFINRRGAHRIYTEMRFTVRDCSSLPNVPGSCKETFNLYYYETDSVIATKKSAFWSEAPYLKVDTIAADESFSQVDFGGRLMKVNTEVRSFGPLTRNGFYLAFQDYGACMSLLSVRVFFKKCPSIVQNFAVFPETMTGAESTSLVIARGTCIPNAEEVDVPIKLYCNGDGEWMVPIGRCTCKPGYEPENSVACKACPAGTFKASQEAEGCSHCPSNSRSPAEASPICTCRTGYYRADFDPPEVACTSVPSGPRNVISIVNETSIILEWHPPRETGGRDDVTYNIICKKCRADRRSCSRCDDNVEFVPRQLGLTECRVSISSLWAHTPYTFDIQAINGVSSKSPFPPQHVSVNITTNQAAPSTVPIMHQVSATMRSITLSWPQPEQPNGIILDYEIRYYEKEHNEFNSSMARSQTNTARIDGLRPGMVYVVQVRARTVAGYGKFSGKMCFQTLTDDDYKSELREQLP
# Protocol summary: Octet 80 sec association/500 sec dissociation, immobilized human EphrinB2-Fc binding to soluble human EphB1-His
# Run parameters: at 3.2 μM and 80 seconds; immobilized human EphrinB2; 25 nM soluble human EphB1
Value kind: EphB1 Inhibition Percent, Inhibition of Association ONLY (%)

Compound | Output unit | Measured number
O=[N+]([O-])c1ccc(N2CCN(Cc3ccc(O)c4ncccc34)CC2)cc1 [Compound 38] | % | 24.8
COCc1cc(CN2CCN(C)CC2)c(O)c2ncccc12 [Compound 77, reference compound] | % | 16.9
Oc1c(Br)cc(CN2CCN(Cc3ccc(Br)cc3)CC2)c2cccnc12 [Compound 45] | % | 37.3
Oc1ccc(CN2CCCCC2)c2cccnc12 [Compound 68, 5-(piperidin-1-ylmethyl)quinolin-8-ol, reference compound] | % | 28.3
COc1ccc(N2CCN(Cc3ccc(O)c4ncccc34)CC2)cc1 [Compound 72] | % | 30.0
Oc1ccc(CN2CCN(c3ccc(Br)cn3)CC2)c2cccnc12 [Compound 34] | % | 46.4

* * *

# Target under test: EphrinB2-EphB4 (Homo sapiens)
# Construct: soluble human EphB1-His, EphB2-His, and EphB4-His ectodomains; commercially available human EphrinB1-Fc (EB1), EphrinB2-Fc (EB2), and EphrinB3-Fc (EB3) ectodomain proteins; purchased
# Sequence (P54760 16-539 limits assumed): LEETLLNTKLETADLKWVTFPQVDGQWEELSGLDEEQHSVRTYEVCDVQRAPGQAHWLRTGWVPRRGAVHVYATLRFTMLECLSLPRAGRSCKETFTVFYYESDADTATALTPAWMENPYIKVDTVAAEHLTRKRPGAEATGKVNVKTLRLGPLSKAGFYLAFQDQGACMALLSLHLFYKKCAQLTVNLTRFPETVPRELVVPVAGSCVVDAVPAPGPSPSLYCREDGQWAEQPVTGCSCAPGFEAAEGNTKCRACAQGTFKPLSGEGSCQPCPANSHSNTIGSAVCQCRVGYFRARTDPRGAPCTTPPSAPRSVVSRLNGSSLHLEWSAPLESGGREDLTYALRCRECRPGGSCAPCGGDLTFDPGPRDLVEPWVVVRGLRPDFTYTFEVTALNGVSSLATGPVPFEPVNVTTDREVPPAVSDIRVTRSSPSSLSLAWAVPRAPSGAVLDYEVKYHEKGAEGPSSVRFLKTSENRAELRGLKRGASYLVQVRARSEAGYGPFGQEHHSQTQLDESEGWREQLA
# Protocol summary: Octet 80 sec association/500 sec dissociation, immobilized human EphrinB2-Fc binding to soluble human EphB4-His
# Run parameters: at 3.2 μM and 580 seconds; immobilized human EphrinB2; 25 nM soluble human EphB4
Structures can show the parent of a compound that is named as a salt.
Label rule, in plain words: EphB4 Inhibition Percent, Inhibition of Association-Dissociation of 20% and up is T, under 20% is F.

Compound | Class assignment
COc1ccc2[nH]cc(C(=O)N3CCN(c4ccc(Br)cc4)CC3)c2c1 [Compound 65] | F
O=S1(=O)CCN(Cc2cc(I)c(O)c3ncccc23)CC1 [Compound 19] | T
OCc1ccc2c(CN3CCOCC3)ccc(O)c2n1 [Compound 12] | F
Oc1c(Br)cc(CN2CCOCC2)c2cccnc12 [Compound 6] | T
COc1ccccc1N1CCN(Cc2cc(I)c(O)c3ncccc23)CC1 [Compound 71-A, dihydrochloride] | T
Oc1ccc(CN2CCN(c3ccc(C(F)(F)F)cc3)CC2)c2cccnc12 [Compound 103] | F
O=[N+]([O-])c1ccc(N2CCN(Cc3ccc(O)c4ncccc34)CC2)cc1 [Compound 38] | F
Oc1ccc(CN2CCCCC2)c2cccnc12 [Compound 68, 5-(piperidin-1-ylmethyl)quinolin-8-ol, reference compound] | F
COc1ccc(N2CCN(Cc3ccc(O)c4ncccc34)CC2)cc1 [Compound 72] | T
Oc1c(Br)cc(CN2CCN(Cc3ccc(Br)cc3)CC2)c2cccnc12 [Compound 45] | T
Oc1ccc(CN2CCN(c3ccc(Br)cn3)CC2)c2cccnc12 [Compound 34] | T
COc1ccc(N2CCN(Cc3cc(I)c(O)c4ncccc34)CC2)cc1 [Compound 74] | T

* * *

Reported inhibition at 3.2 µM is given for each of the following compounds.
# Target under test: EphrinB2-EphB4 (Homo sapiens)
# Construct: soluble human EphB1-His, EphB2-His, and EphB4-His ectodomains; commercially available human EphrinB1-Fc (EB1), EphrinB2-Fc (EB2), and EphrinB3-Fc (EB3) ectodomain proteins; purchased
# Protocol summary: Octet 80 sec association/500 sec dissociation, immobilized human EphrinB2-Fc binding to soluble human EphB4-His
# Run parameters: EphB4; 25 nM EphB4; 3.2 μM compound; A20-I as max control; 0* = less than 0, no inhibition; read-out: % Inhibition: Association + Dissociation (160 sec)

Compound | inhibition at 3.2 µM
Oc1ccc(CN2CCN(Cc3ccccc3)CC2)c2cccnc12 | 2.6%
COc1ccc2[nH]cc(C(=O)N3CCN(c4ccccc4OC)CC3)c2c1 | 0%
COc1ccccc1N1CCN(Cc2cc(Br)c(O)c3ncccc23)CC1 | 36.3%
COc1ccc2[nH]cc(C(=O)N3CCOCC3)c2c1 | 0%

* * *

// reported EphB2 Inhibition Percent, Inhibition of Association ONLY per item
# Target under test: EphrinB2-EphB2 (Homo sapiens)
# Construct: soluble human EphB1-His, EphB2-His, and EphB4-His ectodomains; commercially available human EphrinB1-Fc (EB1), EphrinB2-Fc (EB2), and EphrinB3-Fc (EB3) ectodomain proteins; purchased
# Protocol summary: Octet 80 sec association/500 sec dissociation, immobilized human EphrinB2-Fc binding to soluble human EphB2-His
# Run parameters: at 3.2 μM and 80 seconds; immobilized human EphrinB2; 25 nM soluble human EphB2
Counter-ions that a name gives are not always drawn.
Value kind: EphB2 Inhibition Percent, Inhibition of Association ONLY (%)

Compound | Output unit | Measured number
Oc1c(Br)cc(CN2CCN(Cc3ccc(Br)cc3)CC2)c2cccnc12 | % | 62.1
COc1ccc(N2CCN(Cc3ccc(O)c4ncccc34)CC2)cc1 | % | 39.4
COc1ccccc1N1CCN(Cc2cc(I)c(O)c3ncccc23)CC1 [Compound 71-A, dihydrochloride] | % | 58.7
Oc1c(Cl)cc(CN2CCOCC2)c2cccnc12 | % | 64.1
COc1ccc2[nH]cc(C(=O)N3CCN(c4ccc(Br)cc4)CC3)c2c1 | % | 5.6
O=S1(=O)CCN(Cc2cc(Br)c(O)c3ncccc23)CC1 | % | 59.5
Oc1c(Br)cc(CN2CCOCC2)c2cccnc12 | % | 61.0

* * *

# Target under test: EphrinB2-EphB2 (Homo sapiens, UniProt P29323)
# Construct: soluble human EphB1-His, EphB2-His, and EphB4-His ectodomains; commercially available human EphrinB1-Fc (EB1), EphrinB2-Fc (EB2), and EphrinB3-Fc (EB3) ectodomain proteins; purchased
# Sequence (P29323 19-543 limits assumed): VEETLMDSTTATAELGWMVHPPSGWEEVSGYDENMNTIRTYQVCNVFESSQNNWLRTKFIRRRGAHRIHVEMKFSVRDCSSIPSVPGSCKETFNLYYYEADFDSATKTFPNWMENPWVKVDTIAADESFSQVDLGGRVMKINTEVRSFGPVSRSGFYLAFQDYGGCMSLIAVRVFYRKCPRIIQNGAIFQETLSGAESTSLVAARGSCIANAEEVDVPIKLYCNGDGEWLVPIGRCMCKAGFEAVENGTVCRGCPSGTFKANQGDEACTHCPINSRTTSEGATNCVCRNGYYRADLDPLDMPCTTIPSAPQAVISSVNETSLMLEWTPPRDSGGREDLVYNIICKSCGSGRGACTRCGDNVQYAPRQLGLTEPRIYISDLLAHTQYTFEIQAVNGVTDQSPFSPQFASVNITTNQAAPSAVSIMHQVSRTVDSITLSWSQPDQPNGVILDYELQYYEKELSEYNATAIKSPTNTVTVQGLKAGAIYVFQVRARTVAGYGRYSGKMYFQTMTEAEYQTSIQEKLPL
# Protocol summary: Octet tetramerization inhibition, immobilized human EphrinB2 binding to 50 nM soluble human EphB2
# Run parameters: Absolute AUC/IC50, Table A, EphrinB2-EphB2
Quick list: IC50 per entry.

Compound | IC50
OCc1ccc2c(CN3CCOCC3)cc(Br)c(O)c2n1 | > 3.2 µM
O=[N+]([O-])c1cc(CN2CCS(=O)(=O)CC2)c2cccnc2c1O | > 3.2 µM
Oc1ccc(CN2CCN(Cc3ccc(C(F)(F)F)cc3)CC2)c2cccnc12 | > 1.6 µM
OCc1ccc2c(CN3CCOCC3)ccc(O)c2n1 | > 3.2 µM
Oc1c(I)cc(CN2CCN(Cc3ccc(Br)cc3)CC2)c2cccnc12 | 0.63 µM
Oc1ccc(CN2CCN(c3ccc(I)cc3)CC2)c2cccnc12 | > 1.6 µM
Oc1c(Cl)cc(CN2CCOCC2)c2cccnc12 [Compound 3] | 2.4 µM
Oc1ccc(CN2CCOCC2)c2cccnc12 [Compound 2] | > 6.4 µM
O=S1(=O)CCN(Cc2cc(I)c(O)c3ncccc23)CC1 | > 1.6 µM
Oc1ccc(CN2CCN(c3ccc(Br)cn3)CC2)c2cccnc12 | 2.51 µM
COc1ccc2[nH]cc(C(=O)N3CCOCC3)c2c1 | > 3.2 µM
Oc1c(I)cc(CN2CCOCC2)c2cccnc12 | > 1.6 µM
Oc1c(Cl)cc(CN2CCOCC2)c2cccnc12 [Compound 4] | 0.93 µM
COc1ccccc1N1CCN(Cc2cc(Br)c(O)c3ncccc23)CC1 | > 1.6 µM
O=S1(=O)CCN(Cc2ccc(O)c3ncccc23)CC1 | > 1.6 µM
O=S1(=O)CCN(Cc2cc(Br)c(O)c3ncccc23)CC1 | 1.48 µM
Oc1c(Br)cc(CN2CCN(Cc3ccc(Br)cc3)CC2)c2cccnc12 [Compound 45] | 0.76 µM
COc1ccc2[nH]cc(C(=O)N3CCN(c4ccccc4OC)CC3)c2c1 | > 1.6 µM
Oc1c(Br)cc(CN2CCN(c3ccc(Br)cc3)CC2)c2cccnc12 | 0.26 µM
COc1ccccc1N1CCN(Cc2ccc(O)c3ncccc23)CC1 | > 3.2 µM
Oc1ccc(CN2CCN(c3ccccc3)CC2)c2cccnc12 [Compound 23] | > 1.6 µM
O=[N+]([O-])c1cc(CN2CCOCC2)c2cccnc2c1O [Compound 10] | > 1.6 µM
Oc1ccc(CN2CCOCC2)c2cccnc12 [Compound 1, 5-(morpholinomethyl)quinolin-8-ol] | > 1.6 µM
